Molecular target: human ferroportin (Homo sapiens, UniProt Q9NP59)
Construct: luciferase reporter (probably NanoLuc, inferred from the Nano-Glo Luciferase Assay System read-out); expressed in transfected cells; host or cells: CHO cells, stably transfected, expression induced with doxycycline
Sequence (Q9NP59 whole entry): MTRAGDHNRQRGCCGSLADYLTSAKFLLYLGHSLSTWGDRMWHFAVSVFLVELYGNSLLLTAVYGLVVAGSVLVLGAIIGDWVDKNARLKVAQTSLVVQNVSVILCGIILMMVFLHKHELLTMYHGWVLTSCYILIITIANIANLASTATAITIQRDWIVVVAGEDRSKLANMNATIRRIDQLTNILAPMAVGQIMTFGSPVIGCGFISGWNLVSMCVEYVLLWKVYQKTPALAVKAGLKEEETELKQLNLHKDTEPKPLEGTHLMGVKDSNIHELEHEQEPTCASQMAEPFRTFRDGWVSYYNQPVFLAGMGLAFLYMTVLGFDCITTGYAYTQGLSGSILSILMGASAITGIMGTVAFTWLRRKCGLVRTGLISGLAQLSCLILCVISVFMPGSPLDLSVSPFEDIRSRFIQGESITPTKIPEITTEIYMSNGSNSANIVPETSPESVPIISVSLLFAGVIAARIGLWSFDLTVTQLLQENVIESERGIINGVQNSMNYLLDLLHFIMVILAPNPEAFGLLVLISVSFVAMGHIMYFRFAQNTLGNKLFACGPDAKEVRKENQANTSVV
Assay: In-vitro ferroportin internalization assay (luciferase reporter)
Format: cell-based
Settings: average pEC50; stably-transfected CHO cell line expressing human ferroportin tagged to a luciferase reporter; 6 h incubation with test compound
PROPERTY LABEL: pEC50

1. c1ccc(-c2csc3nc(-c4ccccn4)nc(N4CCN(c5ccccc5)CC4)c23)cc1: 5.7
2. CC(C)[C@@H](C(=O)Nc1cnn(C)c1)N(C)c1nc(-c2ccccn2)nc2c1CCC2 (single isomer, unassigned): 7.2
3. CCc1cc(NC2CN(c3ccccc3)C2=O)nc(-c2ccccn2)n1 (centres unmarked): 5.4
4. CS(=O)(=O)CCNc1nc(-c2ccccn2)nc2scc(-c3ccccc3)c12: 5.8
5. c1ccc(-c2csc3nc(-c4ccccn4)nc(N4CCN(c5ccccn5)CC4)c23)cc1: 6
6. COCCN(C)c1nc(-c2ccccn2)nc2sc(C)c(C)c12: 6.9
7. Cc1sc2nc(-c3ccccn3)nc(N(C)CC(=O)Nc3cccc(F)c3)c2c1C: 7
8. CC1CC(=O)NCCN1c1nc(-c2ccccn2)nc2scc(-c3ccccc3)c12 (centres unmarked): 5.5
9. O=C1C(Nc2cc(C(F)(F)F)nc(-c3ccccn3)n2)CCN1c1ccccc1 (centres unmarked): 5.7
10. Cc1cc(NCCc2cccnc2)nc(-c2ccccn2)n1: 5.4
